# experimental target: Human PTP1B (Homo sapiens, UniProt P18031)
# Construct: His6 (N); made in house; host or cells: E. coli BL21 DE3
# Sequence (P18031 1-435): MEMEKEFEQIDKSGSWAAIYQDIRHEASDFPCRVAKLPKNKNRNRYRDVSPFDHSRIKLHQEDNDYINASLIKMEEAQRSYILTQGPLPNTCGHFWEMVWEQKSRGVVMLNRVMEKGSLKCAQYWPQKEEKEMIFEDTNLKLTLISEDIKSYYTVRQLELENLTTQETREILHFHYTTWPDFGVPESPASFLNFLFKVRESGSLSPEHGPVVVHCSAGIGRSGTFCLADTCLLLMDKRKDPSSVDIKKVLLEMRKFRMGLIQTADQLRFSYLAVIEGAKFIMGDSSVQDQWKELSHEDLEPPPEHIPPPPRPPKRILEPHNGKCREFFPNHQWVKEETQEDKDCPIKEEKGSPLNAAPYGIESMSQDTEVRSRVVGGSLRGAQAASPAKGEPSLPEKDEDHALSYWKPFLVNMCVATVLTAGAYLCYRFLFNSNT
# assay comment: In vitro phosphatase activity assay (DiFMUP assay)
# Type: biochemical
# study conditions: PTP1B lC50 (μM), DiFMUP assay at room temperature; positive control ABBV-CLS-484, negative control DMSO
observed property: IC50 (µM)
Write it as a number; the unit µM goes unstated.

Q) Give its IC50 value. Item: O=C1O[C@@H]([C@@]2(O)C(=O)N(Cc3ccccc3)c3cccc(Cl)c32)C=C1c1ccccc1 [6d]
A) 17.8

Q) Give its IC50 value. Item: O=C1OC(C2(O)C(=O)N(Cc3ccccc3)c3cccc(Br)c32)C=C1c1ccc2c(c1)OCO2 (stereo not shown) [6ah]
A) 0.92

Q) Give its IC50 value. Item: O=C1O[C@@H]([C@@]2(O)C(=O)N(Cc3ccccc3)c3ccccc32)C=C1c1ccccc1 [6a]
A) 29.7

Q) Give its IC50 value. Item: CC1CCC(C(C)C)C(OC(=O)c2ccc(C3=C(c4ccccc4)C(=O)OC3C3(O)C(=O)Nc4ccccc43)cc2)C1 (stereo not shown) [6au]
A) 1.56

Origin of values: paper PMC12203432
